Quick reference for inhibition among some molecules
biological target: Thromboxane-A synthase (Rattus norvegicus) (UniProt P49430); experiment: Inhibitory activity for thromboxane synthetase determined by TXB2 levels in platelets from spontaneously hypertensive rats.; parameters: concentration or dose not given beside the values; details: concentration not given here
Sequence (P49430 whole entry): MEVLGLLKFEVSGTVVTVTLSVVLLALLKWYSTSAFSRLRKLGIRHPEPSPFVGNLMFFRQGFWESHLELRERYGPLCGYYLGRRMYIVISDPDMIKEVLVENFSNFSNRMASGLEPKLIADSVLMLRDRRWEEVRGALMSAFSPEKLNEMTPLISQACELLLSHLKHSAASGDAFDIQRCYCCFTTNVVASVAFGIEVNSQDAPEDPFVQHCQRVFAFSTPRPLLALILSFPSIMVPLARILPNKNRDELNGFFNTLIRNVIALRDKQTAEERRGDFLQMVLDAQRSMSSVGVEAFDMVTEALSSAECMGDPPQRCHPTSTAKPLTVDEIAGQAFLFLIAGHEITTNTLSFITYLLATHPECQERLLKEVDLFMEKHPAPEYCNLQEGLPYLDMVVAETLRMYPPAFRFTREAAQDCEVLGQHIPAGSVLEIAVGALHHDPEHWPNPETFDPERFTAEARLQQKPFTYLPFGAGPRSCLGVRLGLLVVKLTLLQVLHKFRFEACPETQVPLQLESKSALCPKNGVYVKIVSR
measured_parameter: inhibition

>>> df
                                   molecule                            assayed_system  measured_parameter  reported_result
0                 Nc1ccccc1C(=O)NCCCn1ccnc1  Thromboxane-A synthase (Rattus norvegicus) (UniProt P49430)          inhibition              89%
1  O=C(NCCCn1ccnc1)C1CC1c1ccccc1 (stereo not given)  Thromboxane-A synthase (Rattus norvegicus) (UniProt P49430)          inhibition             100%
2      O=C(NCCCCCn1ccnc1)c1ccc(C(F)(F)F)cc1  Thromboxane-A synthase (Rattus norvegicus) (UniProt P49430)          inhibition             100%
3            O=C(NCCCCCn1ccnc1)c1ccc(Br)cc1  Thromboxane-A synthase (Rattus norvegicus) (UniProt P49430)          inhibition             100%
4      CS(=O)(=O)c1ccc(C(=O)NCCCn2ccnc2)cc1  Thromboxane-A synthase (Rattus norvegicus) (UniProt P49430)          inhibition              80%
